B1: PTPN9 (parent)
chain: ILFSLPPALDWDSVHVPGPHAMTI

variants of: B1; assay: protein stability index of a GFP-peptide fusion (GPS, HEK-293T) (PSI 1-6); higher = more stable; conditions: c terminus: a fixed tail appended;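 also: lentivirally expressed fusions sorted by FACS into six bins by GFP to DsRed ratio, PSI derived from sequencing read proportions per bin multiplied by bin number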
What protein stability index was measured for each of the following?
Give only the figure.

Enquiry: Quick one: protein stability index for G18V ?
Return: 2.36

Enquiry: Moving on to S4E
Return: 1.75

Enquiry: Moving on to S4D
Return: 2.38

Enquiry: Moving on to A8K
Return: 2.87

Enquiry: Moving on to A8I
Return: 1.81

Enquiry: Moving on to S13G
Return: 2.02

Enquiry: Moving on to A8W
Return: 2.68

Enquiry: Moving on to D12G
Return: 1.97

Enquiry: Moving on to W11F
Return: 3.1

Enquiry: Moving on to I24C
Return: 2.43

Enquiry: Moving on to I24A
Return: 1.55

Enquiry: Moving on to F3N
Return: 1.83

Enquiry: Moving on to A21N
Return: 1.75

Enquiry: Moving on to F3K
Return: 1.95

Enquiry: Moving on to L2A
Return: 2.12

Enquiry: Moving on to D12Q
Return: 1.88

Enquiry: Moving on to W11E
Return: 1.57

Enquiry: Moving on to A8S
Return: 3.4

Enquiry: Moving on to H15S
Return: 1.85

Enquiry: Moving on to I1N
Return: 1.8

Enquiry: Moving on to D12S
Return: 3.29

Enquiry: Moving on to D12C
Return: 2.75

Recorded values, source the supplement of paper PMC10567573.
